test: Metabolic stability in human liver microsomes assessed as compound remaining at 2 to 10 uM measured after 60 mins in absence of NADPH by LC-MS/MS analysis
Assay type: ADME, Microsome
experimentalSetup: dose 2-10 µM, read-out: Stability
readoutKind: remaining at 1 h, up to 10 µM (%)
Report as a plain number; the unit % is understood.

Looking up Cc1cc(C)n2c(NC3CCCCC3)c(-c3nccs3)nc2n1 , I see its remaining at 1 h, up to 10 µM listed as 101

Looking up Fc1ccc(-c2nc3ncccn3c2NC2CCCCC2)c(F)c1 , I see its remaining at 1 h, up to 10 µM listed as 104

Looking up Fc1ccc(-c2nc3ncccn3c2NC2CCCCC2)cc1F , I see its remaining at 1 h, up to 10 µM listed as 113

Looking up Oc1ccc(-c2nc3ncccn3c2NC2CCCCC2)c(F)c1 , I see its remaining at 1 h, up to 10 µM listed as 115

Looking up Cc1cc(C)n2c(NC3CCCCC3)c(-c3ccnc(Cl)c3)nc2n1 , I see its remaining at 1 h, up to 10 µM listed as 114

Looking up COCOc1ccc(-c2nc3ncc(Cl)cn3c2NC2CCCCCC2)cc1 , I see its remaining at 1 h, up to 10 µM listed as 111

Looking up Fc1ccc(-c2nc3ncc(Cl)cn3c2NC2CCCCCC2)cc1F , I see its remaining at 1 h, up to 10 µM listed as 97

Looking up CCN(c1c(-c2ccc(F)c(F)c2)nc2ncccn12)C1CCCCC1 , I see its remaining at 1 h, up to 10 µM listed as 110

Looking up COc1ccc(-c2nc3ncccn3c2NC2CCCCC2)cc1 , I see its remaining at 1 h, up to 10 µM listed as 113

Looking up COCOc1ccc(-c2nc3ncc(Cl)cn3c2NC2CCCCC2)c(F)c1 , I see its remaining at 1 h, up to 10 µM listed as 106

Looking up COCOc1ccc(-c2nc3ncccn3c2NC2CCCCC2)cc1 , I see its remaining at 1 h, up to 10 µM listed as 105

Looking up Fc1cc(OCc2ccc(C(F)(F)F)cc2)ccc1-c1nc2ncccn2c1NC1CCCCC1 , I see its remaining at 1 h, up to 10 µM listed as 105

Looking up COCOc1ccc(-c2nc3ncccn3c2NC2CCCCC2)c(F)c1 , I see its remaining at 1 h, up to 10 µM listed as 103

----------
test: Tmax in CD1 mouse at 25 mg/kg, ip
Format: ADME, organism-based
experimentalSetup: in vivo
Could you please report measured Tmax for the items listed next?
State the value with its unit after it.

Looking up Fc1cc(OCc2ccc(C(F)(F)F)cc2)ccc1-c1nc2ncccn2c1NC1CCCCC1 , I see its Tmax listed as 2.67 h

Looking up Oc1ccc(-c2nc3ncccn3c2NC2CCCCC2)c(F)c1 , I see its Tmax listed as 0.083 h

----------
test: Clearance in CD1 mouse at 25 mg/kg, ip
Type: ADME, organism-based
experimentalSetup: in vivo
readoutKind: CL/F
State the value with its unit after it.

Looking up Oc1ccc(-c2nc3ncccn3c2NC2CCCCC2)c(F)c1 , I see its CL/F listed as 114 mL/min/kg

Looking up Fc1cc(OCc2ccc(C(F)(F)F)cc2)ccc1-c1nc2ncccn2c1NC1CCCCC1 , I see its CL/F listed as 12.8 mL/min/kg

----------
test: Metabolic stability in human liver microsomes assessed as compound remaining at 2 to 10 uM measured after 60 mins in presence of quinidine/NADPH by LC-MS/MS analysis
Assay type: ADME, Microsome
experimentalSetup: with quinidine, dose 2-10 µM, read-out: Stability
readoutKind: remaining at 1 h, up to 10 µM (%)
Report as a plain number; the unit % is understood.

Looking up Fc1ccc(-c2nc3ncccn3c2NC2CCCCC2)cc1F , I see its remaining at 1 h, up to 10 µM listed as 10.9

Looking up COc1ccc(-c2nc3ncccn3c2NC2CCCCC2)cc1 , I see its remaining at 1 h, up to 10 µM listed as 36.5

----------
test: Cmax in CD1 mouse at 25 mg/kg, ip
Assay type: ADME, organism-based
experimentalSetup: in vivo
Could you please report measured Cmax for the items listed next?
Report as a plain number; the unit ng/mL is understood.

Looking up Fc1cc(OCc2ccc(C(F)(F)F)cc2)ccc1-c1nc2ncccn2c1NC1CCCCC1 , I see its Cmax listed as 2930

Looking up Oc1ccc(-c2nc3ncccn3c2NC2CCCCC2)c(F)c1 , I see its Cmax listed as 14500

----------
test: Metabolic stability in BALB/c mouse liver microsomes assessed as compound remaining at 2 to 10 uM measured after 60 mins in presence of NADPH by LC-MS/MS analysis
Format: ADME, Microsome
experimentalSetup: dose 2-10 µM, read-out: Stability
Binarize remaining at 1 h, up to 10 µM at 10%; below is condition met, at or above is condition not met.

Data request: Find out if reported remaining at 1 h, up to 10 µM for Fc1ccc(-c2nc3ncccn3c2NC2CCCCC2)cc1F is less than 10%
Data returned: condition met

Data request: Find out if reported remaining at 1 h, up to 10 µM for Fc1ccc(-c2nc3ncc(Cl)cn3c2NC2CCCCCC2)cc1F is less than 10%
Data returned: condition met

Data request: Find out if reported remaining at 1 h, up to 10 µM for COCOc1ccc(-c2nc3ncccn3c2NC2CCCCC2)c(F)c1 is less than 10%
Data returned: condition met

Data request: Find out if reported remaining at 1 h, up to 10 µM for Fc1cc(OCc2ccc(C(F)(F)F)cc2)ccc1-c1nc2ncccn2c1NC1CCCCC1 is less than 10%
Data returned: condition not met

Data request: Find out if reported remaining at 1 h, up to 10 µM for Cc1cc(C)n2c(NC3CCCCC3)c(-c3nccs3)nc2n1 is less than 10%
Data returned: condition not met

Data request: Find out if reported remaining at 1 h, up to 10 µM for Cc1cc(C)n2c(NC3CCCCC3)c(-c3ccnc(Cl)c3)nc2n1 is less than 10%
Data returned: condition met

Data request: Find out if reported remaining at 1 h, up to 10 µM for Fc1ccc(-c2nc3ncccn3c2NC2CCCCC2)c(F)c1 is less than 10%
Data returned: condition not met

Data request: Find out if reported remaining at 1 h, up to 10 µM for COCOc1ccc(-c2nc3ncc(Cl)cn3c2NC2CCCCCC2)cc1 is less than 10%
Data returned: condition met

Data request: Find out if reported remaining at 1 h, up to 10 µM for COCOc1ccc(-c2nc3ncccn3c2NC2CCCCC2)cc1 is less than 10%
Data returned: condition met

Data request: Find out if reported remaining at 1 h, up to 10 µM for COc1ccc(-c2nc3ncccn3c2NC2CCCCC2)cc1 is less than 10%
Data returned: condition met

Data request: Find out if reported remaining at 1 h, up to 10 µM for CCN(c1c(-c2ccc(F)c(F)c2)nc2ncccn12)C1CCCCC1 is less than 10%
Data returned: condition met

Data request: Find out if reported remaining at 1 h, up to 10 µM for COCOc1ccc(-c2nc3ncc(Cl)cn3c2NC2CCCCC2)c(F)c1 is less than 10%
Data returned: condition not met

Data request: Find out if reported remaining at 1 h, up to 10 µM for Oc1ccc(-c2nc3ncccn3c2NC2CCCCC2)c(F)c1 is less than 10%
Data returned: condition not met

----------
test: AUC (infinity) in CD1 mouse at 25 mg/kg, ip
Type: ADME, organism-based
experimentalSetup: in vivo
Could you please report measured AUC(0-inf) for the items listed next?
Report as a plain number; the unit ng·h/mL is understood.

Looking up Oc1ccc(-c2nc3ncccn3c2NC2CCCCC2)c(F)c1 , I see its AUC(0-inf) listed as 3660

Looking up Fc1cc(OCc2ccc(C(F)(F)F)cc2)ccc1-c1nc2ncccn2c1NC1CCCCC1 , I see its AUC(0-inf) listed as 33900

----------
test: Metabolic stability in BALB/c mouse liver microsomes assessed as compound remaining at 2 to 10 uM measured after 60 mins in absence of NADPH by LC-MS/MS analysis
Type: ADME, Microsome
experimentalSetup: dose 2-10 µM, read-out: Stability
Could you please report measured remaining at 1 h, up to 10 µM for the items listed next?
Report as a plain number; the unit % is understood.

Looking up CCN(c1c(-c2ccc(F)c(F)c2)nc2ncccn12)C1CCCCC1 , I see its remaining at 1 h, up to 10 µM listed as 103

Looking up COCOc1ccc(-c2nc3ncc(Cl)cn3c2NC2CCCCC2)c(F)c1 , I see its remaining at 1 h, up to 10 µM listed as 102

Looking up Oc1ccc(-c2nc3ncccn3c2NC2CCCCC2)c(F)c1 , I see its remaining at 1 h, up to 10 µM listed as 101

Looking up Fc1ccc(-c2nc3ncc(Cl)cn3c2NC2CCCCCC2)cc1F , I see its remaining at 1 h, up to 10 µM listed as 101

Looking up Cc1cc(C)n2c(NC3CCCCC3)c(-c3ccnc(Cl)c3)nc2n1 , I see its remaining at 1 h, up to 10 µM listed as 105

Looking up Fc1ccc(-c2nc3ncccn3c2NC2CCCCC2)cc1F , I see its remaining at 1 h, up to 10 µM listed as 114

Looking up Cc1cc(C)n2c(NC3CCCCC3)c(-c3nccs3)nc2n1 , I see its remaining at 1 h, up to 10 µM listed as 99.9

Looking up COCOc1ccc(-c2nc3ncc(Cl)cn3c2NC2CCCCCC2)cc1 , I see its remaining at 1 h, up to 10 µM listed as 111

Looking up Fc1cc(OCc2ccc(C(F)(F)F)cc2)ccc1-c1nc2ncccn2c1NC1CCCCC1 , I see its remaining at 1 h, up to 10 µM listed as 104

Looking up COc1ccc(-c2nc3ncccn3c2NC2CCCCC2)cc1 , I see its remaining at 1 h, up to 10 µM listed as 113

Looking up COCOc1ccc(-c2nc3ncccn3c2NC2CCCCC2)c(F)c1 , I see its remaining at 1 h, up to 10 µM listed as 107

Looking up COCOc1ccc(-c2nc3ncccn3c2NC2CCCCC2)cc1 , I see its remaining at 1 h, up to 10 µM listed as 109

Looking up Fc1ccc(-c2nc3ncccn3c2NC2CCCCC2)c(F)c1 , I see its remaining at 1 h, up to 10 µM listed as 108
